Target: BTG-1 (Streptomyces mobaraensis, UniProt P81453)
Construct: BTGase is dissolved in the culture solution and can be harvested from the culture filtrate; endogenous in cells; host or cells: Streptoverticillium mobaraense IFO 13819 (natural producer; purified from culture filtrate)
Sequence (P81453 77-407): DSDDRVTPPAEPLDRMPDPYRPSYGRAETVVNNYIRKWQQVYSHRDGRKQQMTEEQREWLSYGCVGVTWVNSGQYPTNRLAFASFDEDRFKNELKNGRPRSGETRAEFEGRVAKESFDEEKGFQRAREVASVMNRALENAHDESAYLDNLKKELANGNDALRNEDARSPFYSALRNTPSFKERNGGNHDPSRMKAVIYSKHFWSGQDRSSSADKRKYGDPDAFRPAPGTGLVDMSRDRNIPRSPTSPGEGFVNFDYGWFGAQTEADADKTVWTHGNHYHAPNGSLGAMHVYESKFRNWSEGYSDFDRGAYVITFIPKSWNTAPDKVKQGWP
Experiment: Substrate specificity: synthetic substrates with hydroxylamine
Format: biochemical, Streptoverticillium mobaraense IFO 13819
Conditions: Table 4
Experimental: Measurement of the activity of BTGase is carried out by performing a reaction using benzyloxycarbonyl-L-glutaminyl glycine and hydroxylamine as substrates in the absence of Ca^2+, forming an iron complex with the resulting hydroxamic acid in the presence of trichloroacetic acid, measuring absorption at 525 nm and determining the amount of hydroxamic acid by a calibration curve to calculate the activity. The BTGase activity is measured by the method described below, unless otherwise indicated. […]
Residues, ends and D or L forms follow the SMILES beside them. *: point of attachment. Cbz = O=C(OCc1ccccc1)*
Assign class by Substrate specificity (%) BTG-1: not lower than 60% means T; lower than 60% means F.

molecule	label-class
NC(=O)CC[C@H](NC(=O)CNC(=O)CNC(=O)OCc1ccccc1)C(=O)NCC(=O)O [CBZ--Gly--Gly--Gln--Gly] (Cbz-GGQG-OH)	F
NC(=O)CC[C@H](NC(=O)CNC(=O)OCc1ccccc1)C(=O)NCC(=O)NCC(=O)O [CBZ--Gly--Gln--Gly--Gly] (Cbz-GQGG-OH)	F
NC(=O)CC[C@H](NC(=O)OCc1ccccc1)C(=O)NCC(=O)O [CBZ--Gln--Gly, benzyloxycarbonylglutaminyl glycine] (Cbz-Gln-Gly-OH)	T

**Q:** Would you say CCOC(=O)CNC(=O)[C@H](CCC(N)=O)NC(=O)OCc1ccccc1 [CBZ--Gln--Gly--OEt] (Cbz-Gln-Gly-OEt) shows Substrate specificity (%) BTG-1 at minimum 60%?
**A:** T

**Q:** Would you say NC(=O)CC[C@H](NC(=O)OCc1ccccc1)C(=O)N[C@@H](CCC(N)=O)C(=O)NCC(=O)O [CBZ--Gln--Gln--Gly] (Cbz-Gln-Gln-Gly-OH) shows Substrate specificity (%) BTG-1 at minimum 60%?
**A:** F
